Target: ATP-dependent translocase ABCB1 (Mus musculus)
Sequence (P21447 whole entry): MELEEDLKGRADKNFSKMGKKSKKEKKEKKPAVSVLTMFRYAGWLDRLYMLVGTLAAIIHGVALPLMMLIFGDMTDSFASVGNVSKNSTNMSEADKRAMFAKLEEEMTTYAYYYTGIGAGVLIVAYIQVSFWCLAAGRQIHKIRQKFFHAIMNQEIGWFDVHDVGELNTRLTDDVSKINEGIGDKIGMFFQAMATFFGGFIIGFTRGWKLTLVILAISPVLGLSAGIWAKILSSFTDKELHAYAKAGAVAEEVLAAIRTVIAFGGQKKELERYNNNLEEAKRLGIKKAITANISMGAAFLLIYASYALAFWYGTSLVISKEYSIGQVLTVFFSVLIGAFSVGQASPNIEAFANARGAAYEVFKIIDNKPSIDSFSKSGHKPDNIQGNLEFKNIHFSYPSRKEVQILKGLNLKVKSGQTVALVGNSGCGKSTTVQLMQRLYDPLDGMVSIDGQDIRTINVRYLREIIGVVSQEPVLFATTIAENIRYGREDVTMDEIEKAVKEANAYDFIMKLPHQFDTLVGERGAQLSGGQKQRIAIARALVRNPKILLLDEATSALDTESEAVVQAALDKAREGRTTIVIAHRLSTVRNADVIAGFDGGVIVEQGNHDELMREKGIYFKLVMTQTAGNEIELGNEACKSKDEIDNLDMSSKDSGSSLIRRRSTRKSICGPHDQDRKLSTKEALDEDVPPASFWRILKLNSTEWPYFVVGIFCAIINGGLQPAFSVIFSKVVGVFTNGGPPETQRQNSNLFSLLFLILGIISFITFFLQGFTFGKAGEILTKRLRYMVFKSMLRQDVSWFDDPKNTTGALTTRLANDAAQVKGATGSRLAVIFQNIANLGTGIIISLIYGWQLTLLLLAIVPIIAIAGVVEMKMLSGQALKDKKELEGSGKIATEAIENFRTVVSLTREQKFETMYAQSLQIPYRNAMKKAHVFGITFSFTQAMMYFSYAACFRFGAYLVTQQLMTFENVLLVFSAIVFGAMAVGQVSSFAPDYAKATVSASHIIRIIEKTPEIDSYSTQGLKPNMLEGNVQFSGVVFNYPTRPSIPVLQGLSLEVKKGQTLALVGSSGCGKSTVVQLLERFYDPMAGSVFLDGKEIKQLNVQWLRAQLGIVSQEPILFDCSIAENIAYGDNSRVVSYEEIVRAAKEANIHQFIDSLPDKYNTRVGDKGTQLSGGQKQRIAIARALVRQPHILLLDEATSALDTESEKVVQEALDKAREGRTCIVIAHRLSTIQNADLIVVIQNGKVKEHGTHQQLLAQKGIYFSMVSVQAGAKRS
Experiment: TP_TRANSPORTER: transepithelial transport (basal to apical) in mdr1a-expressing LLC-PK1 cell
Format: functional, cell-based
Conditions: pig
Property measured: Activity

Problem: Find the measured Activity of Cc1cccc(NC(=O)NC2N=C(c3ccccc3)c3ccccc3N(C)C2=O)c1 (stereo unspecified) and report it.
Solution: substrate [+]

Problem: Find the measured Activity of CC(C)(C)NC(=O)[C@@H]1CN(Cc2cccnc2)CCN1C[C@@H](O)C[C@@H](Cc1ccccc1)C(=O)N[C@H]1c2ccccc2C[C@H]1O.O and report it.
Solution: substrate [+]

Problem: Find the measured Activity of C[C@@H](O)[C@H]1C(=O)N2C(C(=O)[O-])=C(S[C@@H]3CN[C@H](C(=O)Nc4cccc(C(=O)O)c4)C3)[C@H](C)[C@H]12.O.[Na+] and report it.
Solution: is not a substrate [-]

Problem: Find the measured Activity of C[C@H](N)c1ccc(N2CCC(c3nc(-c4cccc(C(F)(F)F)c4)c(-c4ccncc4)n3C)CC2)cc1.[O-][Cl+3]([O-])([O-])O and report it.
Solution: substrate [+]

Problem: Find the measured Activity of CN1C(=O)C(NC(=O)c2cc3ccccc3[nH]2)N=C(c2ccccc2)c2ccccc21 (racemic) and report it.
Solution: is not a substrate [-]

New cases:
Problem: Find the measured Activity of CC(=O)[C@H]1CC[C@H]2[C@@H]3CCC4=CC(=O)CC[C@]4(C)[C@H]3CC[C@]12C and report it.
Solution: is not a substrate [-]

Problem: Find the measured Activity of CC[C@H](C)C[C@H](C)CCCCCCCCC(=O)N[C@H]1C[C@@H](O)[C@@H](NCCN)NC(=O)[C@@H]2[C@@H](O)CCN2C(=O)[C@H]([C@H](O)CCN)NC(=O)[C@H]([C@H](O)[C@@H](O)c2ccc(O)cc2)NC(=O)[C@@H]2C[C@@H](O)CN2C(=O)[C@H]([C@@H](C)O)NC1=O and report it.
Solution: is not a substrate [-]

Problem: Find the measured Activity of N#Cc1ccc(Cn2cncc2CN2CCN(c3cccc(Cl)c3)C(=O)C2)cc1 [L-778123 FREE BASE] and report it.
Solution: substrate [+]

Problem: Find the measured Activity of Cc1nc(N)ccc1CNC(=O)Cn1c(C)cnc(NCCc2ccccc2)c1=O.Cl.Cl.O and report it.
Solution: substrate [+]

Problem: Find the measured Activity of CN1C(=O)CN=C(c2ccccc2)c2cc(Cl)ccc21 and report it.
Solution: is not a substrate [-]

Problem: Find the measured Activity of CC(C)(C)NC(=O)[C@@H]1CN(Cc2cc3ccccc3o2)CCN1[C@@H](Cc1ccccc1)[C@@H](O)C[C@@H](Cc1ccccc1)C(=O)NC1c2ccccc2C[C@H]1O (stereo partly specified) and report it.
Solution: substrate [+]

----------
Target: ATP-dependent translocase ABCB1 (Homo sapiens)
Sequence (P08183 whole entry): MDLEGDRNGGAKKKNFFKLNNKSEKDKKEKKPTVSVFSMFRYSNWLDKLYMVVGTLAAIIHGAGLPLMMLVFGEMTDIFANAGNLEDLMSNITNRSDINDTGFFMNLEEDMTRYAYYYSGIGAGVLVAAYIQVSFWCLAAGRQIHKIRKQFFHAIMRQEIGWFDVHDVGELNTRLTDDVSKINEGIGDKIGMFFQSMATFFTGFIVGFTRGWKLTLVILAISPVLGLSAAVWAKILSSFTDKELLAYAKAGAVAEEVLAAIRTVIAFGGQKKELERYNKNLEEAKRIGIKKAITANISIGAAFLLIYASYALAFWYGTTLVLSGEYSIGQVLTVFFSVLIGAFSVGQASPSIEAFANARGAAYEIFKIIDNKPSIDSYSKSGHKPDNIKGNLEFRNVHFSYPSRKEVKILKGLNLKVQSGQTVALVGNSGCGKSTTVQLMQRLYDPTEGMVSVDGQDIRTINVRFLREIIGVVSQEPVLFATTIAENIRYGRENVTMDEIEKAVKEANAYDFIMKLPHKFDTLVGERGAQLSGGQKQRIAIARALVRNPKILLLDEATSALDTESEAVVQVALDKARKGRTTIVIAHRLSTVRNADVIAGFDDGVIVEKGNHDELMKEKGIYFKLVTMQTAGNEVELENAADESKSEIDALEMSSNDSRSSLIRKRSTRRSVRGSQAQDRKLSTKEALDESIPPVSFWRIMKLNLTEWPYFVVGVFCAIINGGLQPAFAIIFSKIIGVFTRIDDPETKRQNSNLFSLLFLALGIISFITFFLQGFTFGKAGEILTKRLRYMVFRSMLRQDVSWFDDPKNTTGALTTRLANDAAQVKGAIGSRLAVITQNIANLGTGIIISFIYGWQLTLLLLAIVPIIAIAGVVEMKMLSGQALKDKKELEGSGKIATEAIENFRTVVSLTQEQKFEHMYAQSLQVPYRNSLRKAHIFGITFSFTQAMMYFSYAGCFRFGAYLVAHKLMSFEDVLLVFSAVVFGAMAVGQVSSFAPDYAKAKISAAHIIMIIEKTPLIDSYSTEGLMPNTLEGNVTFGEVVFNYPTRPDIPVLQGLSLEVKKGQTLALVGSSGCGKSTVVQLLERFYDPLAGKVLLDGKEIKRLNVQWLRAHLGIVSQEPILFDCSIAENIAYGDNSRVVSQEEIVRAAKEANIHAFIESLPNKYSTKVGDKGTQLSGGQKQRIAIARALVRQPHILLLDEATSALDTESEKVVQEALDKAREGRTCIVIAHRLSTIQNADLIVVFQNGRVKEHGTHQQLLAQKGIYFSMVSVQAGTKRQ
Assay: TP_TRANSPORTER: cell accumulation in KB-3-1 and KB-V1 cells
Type: functional, cell-based
Details: kb-3-1;kb-v1
Property measured: Activity

Guide cases for Activity, answers given:
Problem: Find the measured Activity of C[C@H](N)c1ccc(N2CCC(c3nc(-c4cccc(C(F)(F)F)c4)c(-c4ccncc4)n3C)CC2)cc1.[O-][Cl+3]([O-])([O-])O and report it.
Solution: substrate [+]

Problem: Find the measured Activity of CN1C(=O)C(NC(=O)c2cc3ccccc3[nH]2)N=C(c2ccccc2)c2ccccc21 (racemic) and report it.
Solution: is not a substrate [-]

Problem: Find the measured Activity of N#Cc1ccc(Cn2cncc2CN2CCN(c3cccc(Cl)c3)C(=O)C2)cc1 [L-778123 FREE BASE] and report it.
Solution: substrate [+]

Problem: Find the measured Activity of CC[C@H](C)C[C@H](C)CCCCCCCCC(=O)N[C@H]1C[C@@H](O)[C@@H](NCCN)NC(=O)[C@@H]2[C@@H](O)CCN2C(=O)[C@H]([C@H](O)CCN)NC(=O)[C@H]([C@H](O)[C@@H](O)c2ccc(O)cc2)NC(=O)[C@@H]2C[C@@H](O)CN2C(=O)[C@H]([C@@H](C)O)NC1=O and report it.
Solution: is not a substrate [-]

Problem: Find the measured Activity of CN1C(=O)CN=C(c2ccccc2)c2cc(Cl)ccc21 and report it.
Solution: is not a substrate [-]

Problem: Find the measured Activity of CC(C)(C)NC(=O)[C@@H]1CN(Cc2cc3ccccc3o2)CCN1[C@@H](Cc1ccccc1)[C@@H](O)C[C@@H](Cc1ccccc1)C(=O)NC1c2ccccc2C[C@H]1O (some centres not stated) and report it.
Solution: substrate [+]

Problem: Find the measured Activity of CC[C@]1(O)C[C@@H]2CN(CCc3c([nH]c4ccccc34)[C@@](C(=O)OC)(c3cc4c(cc3OC)N(C)[C@H]3[C@@](O)(C(=O)OC)[C@H](OC(C)=O)[C@]5(CC)C=CCN6CC[C@]43[C@@H]65)C2)C1 and report it.
Solution: substrate [+]

Problem: Find the measured Activity of CC(C)(C)NC(=O)[C@@H]1CN(Cc2cccnc2)CCN1C[C@@H](O)C[C@@H](Cc1ccccc1)C(=O)N[C@H]1c2ccccc2C[C@H]1O.O and report it.
Solution: substrate [+]

Problem: Find the measured Activity of C[C@@H](O)[C@H]1C(=O)N2C(C(=O)[O-])=C(S[C@@H]3CN[C@H](C(=O)Nc4cccc(C(=O)O)c4)C3)[C@H](C)[C@H]12.O.[Na+] and report it.
Solution: is not a substrate [-]

Problem: Find the measured Activity of Cc1nc(N)ccc1CNC(=O)Cn1c(C)cnc(NCCc2ccccc2)c1=O.Cl.Cl.O and report it.
Solution: substrate [+]

New cases:
Problem: Find the measured Activity of Cc1cccc(NC(=O)NC2N=C(c3ccccc3)c3ccccc3N(C)C2=O)c1 (configuration not stated) and report it.
Solution: substrate [+]

Problem: Find the measured Activity of CC(=O)[C@H]1CC[C@H]2[C@@H]3CCC4=CC(=O)CC[C@]4(C)[C@H]3CC[C@]12C and report it.
Solution: is not a substrate [-]
